Task for the reader: assign each of the following compounds its reported Percentage inhibition of ligand binding, Adrenergic α2B (0.03 μM).
# measurement target: human recombinant adrenergic α2B receptor (Homo sapiens, UniProt P18089)
# Construct: expressed in transfected cells; host or cells: CHO-K1
# Sequence (P18089 whole entry): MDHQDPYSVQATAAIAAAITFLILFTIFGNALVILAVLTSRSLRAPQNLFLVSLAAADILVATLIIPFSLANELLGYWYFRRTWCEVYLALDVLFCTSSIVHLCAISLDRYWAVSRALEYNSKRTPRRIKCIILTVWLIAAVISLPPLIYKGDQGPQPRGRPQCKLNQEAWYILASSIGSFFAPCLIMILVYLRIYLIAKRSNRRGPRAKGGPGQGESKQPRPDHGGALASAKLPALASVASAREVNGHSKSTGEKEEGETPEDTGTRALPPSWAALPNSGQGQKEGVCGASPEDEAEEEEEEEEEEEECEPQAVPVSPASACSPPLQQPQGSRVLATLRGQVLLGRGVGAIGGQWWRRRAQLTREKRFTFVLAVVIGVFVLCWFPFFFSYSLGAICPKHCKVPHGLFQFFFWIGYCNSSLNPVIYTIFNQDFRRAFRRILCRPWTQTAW
# test name: Radioligand binding, adrenergic α2B ([3H]Rauwolscine)
# condition context: compound at 0.03 μM, repeat datapoints each shown, 0.03 µM
Numbers only, in %.

Some solved entries appear below for comparison.
- Cc1ccc2c(c1)c1c(n2CC(C)(O)c2ccc(C)nc2)CCN(C)C1 (centres unmarked) [29b]: 46
- OC(Cn1c2c(c3cccnc31)CN1CCCC1C2)c1ccncc1 (single isomer, unassigned) [37b]: −3
- Cc1ccc2c(c1)c1c(n2CC(O)c2ccncc2)CN(C)CC1 (centres unmarked) [8a]: 22

Batch request: Percentage inhibition of ligand binding, Adrenergic α2B (0.03 μM) per item, same order as input.
1. Cc1ccc2c(c1)c1c(n2CC(O)c2cccnc2)CCN(CCO)C1 (single isomer, unassigned) [21b]
2. Cc1ccc2c(c1)c1c(n2CC(OC(=O)C(N)C(C)C)c2ccncc2)CCN(C)C1 (single isomer, unassigned) [25b]
3. CN1CCc2c(c3cccc(Cl)c3n2CC(O)c2ccncc2)C1 (single isomer, unassigned) [45b]
4. Cc1ccc2c(c1)c1c(n2CC(O)c2ccccn2)CN(C)CC1 (single isomer, unassigned) [22b]
5. CN1CCc2c(c3cc(C(F)(F)F)ccc3n2CC(O)c2cccnc2)C1 (single isomer, unassigned) [59a]

[1, 75, 96, 30, 15]

----------
# measurement target: human recombinant adrenergic α2A receptor (Homo sapiens)
# Construct: expressed in transfected cells; host or cells: insect Sf9 cells
# Sequence (P08913 whole entry): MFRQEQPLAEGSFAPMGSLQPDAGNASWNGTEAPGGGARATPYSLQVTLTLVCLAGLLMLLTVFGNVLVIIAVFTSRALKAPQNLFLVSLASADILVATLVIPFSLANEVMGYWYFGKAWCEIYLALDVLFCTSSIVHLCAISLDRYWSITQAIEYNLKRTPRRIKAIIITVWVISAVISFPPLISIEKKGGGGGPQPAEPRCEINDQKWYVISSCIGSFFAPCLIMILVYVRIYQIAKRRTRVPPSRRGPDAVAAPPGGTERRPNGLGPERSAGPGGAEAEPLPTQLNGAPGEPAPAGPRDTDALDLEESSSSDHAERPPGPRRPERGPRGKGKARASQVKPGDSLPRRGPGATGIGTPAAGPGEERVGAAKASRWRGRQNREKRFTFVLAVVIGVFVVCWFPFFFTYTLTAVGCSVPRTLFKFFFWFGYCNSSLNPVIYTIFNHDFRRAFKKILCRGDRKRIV
# test name: Radioligand binding, adrenergic α2A ([3H]MK-912)
# condition context: compound at 0.1 μM; [3H]MK-912; repeat datapoints each shown; 0.1 µM
quantity kind: Percentage inhibition of ligand binding, Adrenergic α2A (0.1 μM)
Give the number first and the unit second.

Reference set, count: 3
* Cc1ccc2c(c1)c1c(n2CC(C)(O)c2ccc[n+]([O-])c2)CCN(C)C1 (single isomer, unassigned) [56a] | 11%
* CN1CCc2c(c3cc(C(F)(F)F)ccc3n2CC(O)c2cccnc2)C1 (single isomer, unassigned) [59a] | 18%
* CN1CCc2c(c3cc(Cl)ccc3n2CC(O)c2ccncc2)C1 (single isomer, unassigned) | 7%

For every listed record, write down its Percentage inhibition of ligand binding, Adrenergic α2A (0.1 μM).
1. CN1CCc2c(c3ccc(C(F)(F)F)cc3n2CC(O)c2cccnc2)C1 (single isomer, unassigned) [40b]
2. Cc1ccc2c(c1)c1c(n2CC(O)c2ccncc2)CCN2CCCCC12 (single isomer, unassigned) [47d]
3. CN1CCc2c(c3cccc(Cl)c3n2CC(O)c2ccncc2)C1 (single isomer, unassigned) [45b]
4. Cc1ccc2c(c1)c1c(n2CC(O)c2cc[n+]([O-])cc2)CCN(C)C1 (single isomer, unassigned) [69a]

["13%", "−3%", "16%", "11%"]

The following molecules each have a reported value; give each one's Percentage inhibition of ligand binding, Adrenergic α2A (0.1 μM).
1. Cc1ccc2c(c1)c1c(n2CC(O)c2ccncc2)CC2CCCN2C1 (single isomer, unassigned) [76a]
2. OC(Cn1c2c(c3cccnc31)CN1CCCC1C2)c1ccncc1 (single isomer, unassigned) [37a]
3. Cc1ccc2c(c1)c1c(n2CC(O)c2ccncc2)CCN2CCCCC12 (single isomer, unassigned) [47c]
4. OC(Cn1c2c(c3cccnc31)CN1CCCC1C2)c1ccncc1 (single isomer, unassigned) [37b]
5. Cc1cnc2c(c1)c1c(n2CC(C)(O)c2cccnc2)CCN2CCCC12 (single isomer, unassigned) [26c]
6. Cc1ccc2c(c1)c1c(n2CC(O)c2ccncc2)CC2CCCN2C1 (single isomer, unassigned) [76c]

21%
18%
4%
−20%
19%
5%

Consider the following items and state reported Percentage inhibition of ligand binding, Adrenergic α2A (0.1 μM) for each.
1. Cc1ccc2c(c1)c1c(n2CC(C)(O)c2cccnc2)CCNC1 (single isomer, unassigned) [24a]
2. CCC1c2c(c3cc(C)ccc3n2CC(O)c2ccncc2)C2CCN1C2 (single isomer, unassigned) [36a]
3. Cc1ccc2c(c1)c1c(n2CC(O)c2ccncc2)CN(C)CC1 (stereo not shown)

["8%", "8%", "15%"]

----------
# measurement target: human recombinant adrenergic α2A receptor (Homo sapiens)
# Construct: expressed in transfected cells; host or cells: insect Sf9 cells
# test name: Radioligand binding, adrenergic α2A ([3H]MK-912)
# condition context: 0.1 μM compound; [3H]MK-912
# Experimental: To evaluate in radioligand binding assays the activity of compounds of the invention, human recombinant adrenergic α2A receptor expressed in insect Sf9 cells (Uhlen, S. et al, J. Pharmacol. Exp. Ther. 271:1558, 1994) in a modified Tris-HCl buffer (50 mM Tris-HCl, pH 7.4, 12.5 mM MgCl2, 2 mM EDTA) was used. […] Receptor proteins were filtered and washed, the filters were then counted to determine [^3H]MK-912 specifically bound. […]
Give Percentage inhibition of ligand binding, Adrenergic α2A for every item shown.
Numbers only, in %.

Give Percentage inhibition of ligand binding, Adrenergic α2A for each listed item.
1. Cc1ccc(CCn2c3c(c4cc(Cl)cnc42)C2CCCN2CC3)cn1 (single isomer, unassigned) [137b]
2. Cc1ccc2c(c1)c1c(n2CC(O)c2ccc(C#N)cc2)CCN(C)C1 (stereo not drawn) [142b]
3. Cc1ccc2c(c1)c1c(n2CC(c2ccncc2)N2CCCC2)CCN(C)C1 (single isomer, unassigned) [152a]
4. CN1CCc2c(c3cc(Cl)ccc3n2CC(C)(O)c2ccc(C(F)(F)F)nc2)C1 (single isomer, unassigned) [143b]
5. Cc1ccc2c(c1)c1c(n2C(C)C(O)c2ccncc2)CCN(C)C1 (stereo not drawn) [127b]
6. Cc1cnc2c(c1)c1c(n2CC(N)c2ccc(C#N)cc2)CCN(C)C1 (single isomer, unassigned) [159b]

1: 6; 2: 63; 3: 17; 4: 0; 5: 4; 6: −12

----------
# measurement target: human recombinant adrenergic α2A receptor (Homo sapiens)
# Construct: expressed in transfected cells; host or cells: insect Sf9 cells
# test name: Radioligand binding, adrenergic α2A ([3H]MK-912)
# condition context: read-out: Percentage inhibition of ligand binding, Adrenergic α2A (0.1 μM), compound at 0.1 μM; [3H]MK-912; repeat datapoints each shown
quantity kind: inhibition at 0.1 µM (%)
Answers are plain numbers, in %.

Examples from the recorded data:
- Cc1ccc2c(c1)c1c(n2CC(N=[N+]=[N-])c2ccncc2)CCN(C)C1 (racemic): 36
- Cc1ccc2c(c1)c1c(n2CC(O)c2ccncc2)C(C)N2CCC1C2 (stereo not shown): -1
- Cc1ccc2c(c1)c1c(n2CC(O)c2ccc(C#N)cc2)CCNC1 (stereo not shown): 3
- CN1CCc2c(c3cc(Cl)ccc3n2CC(O)c2cccnc2)C1 (stereo not shown): 16
- Cc1ccc2c(c1)c1c(n2CC(O)c2ccc(F)cc2)CCN(C)C1 (stereo not shown): 63

# batch size: 2; output inhibition at 0.1 µM per entry
1. CCC(O)(Cn1c2c(c3cc(C)ccc31)CN(C)CC2)c1ccc(F)cc1 (stereo not shown)
2. CN1CCc2c(n(CC(O)c3ccncc3)c3ccc(Cl)cc23)C1 (stereo not shown)

1. 28
2. 24

----------
# measurement target: human recombinant adrenergic α2A receptor (Homo sapiens)
# Construct: expressed in transfected cells; host or cells: insect Sf9 cells
# test name: Radioligand binding, adrenergic α2A ([3H]MK-912)
# condition context: 0.1 μM compound; [3H]MK-912; 0.1 µM
quantity kind: Percentage inhibition of ligand binding, Adrenergic α2A (%)
Answers are plain numbers, in %.

Solved entries (count: 10):
- Cc1cnc2c(c1)c1c(n2CC(C)(O)c2ccc(F)cc2)CCN(C)C1 (single isomer, unassigned) [138b]: 4
- Cc1cnc2c(c1)c1c(n2CC(O)c2ccc(F)cc2)CCN(C)C1 (single isomer, unassigned) [136a]: 16
- Cc1ccc2c(c1)c1c(n2CC(N)c2ccncc2)CC2CCC1N2C (single isomer, unassigned) [155b]: 5
- Cc1cnc2c(c1)c1c(n2CC(C)(O)c2ccc(C)nc2)CCN2CCCC12 (single isomer, unassigned) [148a]: −5
- C/C(=C\n1c2c(c3cc(C)ccc31)C1CCCCN1CC2)c1ccc(F)cc1 (single isomer, unassigned) [199a]: 96
- Cc1ccc2c(c1)c1c(n2CC(C)(O)c2cccnc2)CNCC1 (stereo not drawn) [128b]: 22
- Cc1ccc2c(c1)c1c(n2CC(c2ccncc2)N(C)C)CCN(C)C1 (single isomer, unassigned) [150a]: 16
- Cc1ccc2c(c1)c1c(n2CC(c2ccncc2)N(C)C)CCN(C)C1 (single isomer, unassigned) [150b]: 5
- Cc1ccc2c(c1)c1c(n2CC(O)c2ccncc2C)CCN(C)C1 (stereo not drawn) [133a]: 13
- Cc1ccc2c(c1)c1c(n2CC(O)c2ccncc2)CCN2CCCC12 (single isomer, unassigned) [129a]: 46

# per-item lookup of Percentage inhibition of ligand binding, Adrenergic α2A; items listed below
1. Cc1ccc2c(c1)c1c(n2CC(O)c2ccncc2)CCN2CCCC12 (single isomer, unassigned) [129b]
2. Cc1cnc2c(c1)c1c(n2CC(C)(O)c2ccc(C)nc2)CCN2CCCC12 (single isomer, unassigned) [148c]
3. Cc1cnc2c(c1)c1c(n2CC(C)(O)c2ccc(C)nc2)CCN2CCCC12 (single isomer, unassigned) [148d]
4. Cc1cnc2c(c1)c1c(n2CC(C)(O)c2ccc(F)cc2)CCN(C)C1 (single isomer, unassigned) [138a]

55
−1
−11
−8

Entry C/C(=C\n1c2c(c3cc(C)ccc31)C1CCCCN1CC2)c1ccc(F)cc1 (single isomer, unassigned) [199b] ; assay system human recombinant adrenergic α2A receptor (Homo sapiens); Percentage inhibition of ligand binding, Adrenergic α2A recorded at 61

All values here come from patent US9550782B2.
